B1: tRNA (parent)
chain: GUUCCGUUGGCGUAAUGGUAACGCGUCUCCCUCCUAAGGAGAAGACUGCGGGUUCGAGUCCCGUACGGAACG

Variants of: B1
ASSAY COMMENT: yeast fitness relative to wild type (ratio to wild type); higher = fitter; tRNA-Arg(CCU), competitive growth, 37 C, YPD
This sample holds only a part of the variants without activity.
MEASUREMENT TYPE: yeast fitness

# example entries with known answers
In [3]: df
Out[3]:
                 sequence_change  observed_result
0             C4A G23C A40C C55A             0.63
1            A14C C22A C46A U64C            ≤ 0.5
2  G10A A21U C31A G39C C62G G68A            ≤ 0.5
3                  U7A U32A C61G            ≤ 0.5
4            A14G A36U G39A C60G            ≤ 0.5
5            A40G G48A A65C G67C            ≤ 0.5
6            A15C G17C C31A G44C            ≤ 0.5
7                 U28G G41C U53A            ≤ 0.5
8       G23A C29U C30A A42U U53A            ≤ 0.5
9                 U26C C31A A42U              0.9

Consider the record given below.
Can you look up the measured yeast fitness of C4G A40U C49A C55U for me? 0.515

Where do the numbers come from? From the RNAGym collection of RNA variant scans (doi:10.1126/science.aae0568).
